System: CD2F1 mice, L1210 leukemia ip, survival T/C
assay.protocol: NCI In Vivo Anticancer Drug Screen. Data for tumor model L1210 Leukemia (intraperitoneal) in CD2F1 (CDF1) mice
protocol.conditions: endpoint: mean survival time; dose: 400.0 mg/kg/injection; schedule: Q04DX003 (ip); vehicle: other; higher = longer survival
Toxic doses and inconclusive results are not listed.
measured.attribute: T/C

Use these answered entries as a reference point.
| compound | T/C |
| --- | --- |
| CC(=O)N(C(C)=O)c1nc(Br)c2ccccc2c1-c1ccc([N+](=O)[O-])cc1 | 88 % of control |
| CC(C(O)c1ccc(Br)cc1)C(O)(C(F)(F)F)C(F)(F)F (centres undefined) | 100 % of control |
| Clc1nnc(Nc2ccccc2)c2ccccc12 | 88 % of control |

We next turn to a different compound, shown below.
Query: Give the reported T/C for this compound. COC(=O)Nc1ccc(C)cc1[N+](=O)[O-]
Result: 109 % of control
